Tested on: LOC_OS04G35114-cb001;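 further: purified Escherichia coli-expressed rice kinase domain construct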
Assay: thermal shift delta Tm vs DMSO control; higher = stronger stabilization (binding)
Conditions: 12.5 µM; protein concentration 2 µM
Category scheme (thermal shift delta Tm): LOW = under 0.6 °C, MEDIUM = from 0.6 °C up to 3 °C, HIGH = 3 °C and over

// known answers, use as guide
Molecule: Cc1[nH]c(/C=C2\C(=O)Nc3ccc(S(=O)(=O)N(C)c4cccc(Cl)c4)cc32)c(C)c1C(=O)N1CCN(C)CC1
Class Label: HIGH

Molecule: Cc1cc(O)c2c(c1)C(=O)c1cccc(O)c1C2=O
Class Label: LOW

Molecule: Cc1cc(Nc2ncnc3ccc(NC4=NC(C)(C)CO4)cc23)ccc1Oc1ccn2ncnc2c1
Class Label: LOW

Molecule: COc1cccc2cc(-c3nc([C@H]4CC[C@H](C(=O)O)CC4)n4ncnc(N)c34)[nH]c12
Class Label: HIGH

Molecule: Cc1nc(Nc2ncc(C(=O)Nc3c(C)cccc3Cl)s2)cc(N2CCN(CCO)CC2)n1
Class Label: HIGH

Molecule: CCCCCCCCCCCCc1ccc(S(=O)(=O)Nc2nncs2)cc1
Class Label: LOW

*Q* Which class is correct for the following molecule? C=CC(=O)Nc1cccc(Nc2nc(Nc3ccc(Oc4ccnc(C(=O)NC)c4)cc3)ncc2F)c1
*A* MEDIUM

*Q* And what about the molecule Cc1[nH]c(/C=C2\C(=O)Nc3ccccc32)c(C)c1CCC(=O)O [Orantinib (TSU-68, SU6668)] ?
*A* HIGH

*Q* Now the molecule C=C(C)[C@@H]1CC[C@]2(C)CC[C@]3(C)[C@H](CC[C@@H]4[C@@]5(C)CC[C@H](O)C(C)(C)[C@@H]5CC[C@]43C)[C@@H]12
*A* MEDIUM

*Q* Try the molecule CC(C)(C)NC(=O)c1cncn1C1CCN(c2ccc(-c3nnc(C(F)(F)F)o3)cn2)CC1
*A* LOW

*Q* Likewise for COc1cc(Nc2ncc(F)c(Nc3ccc4c(n3)NC(=O)C(C)(C)O4)n2)cc(OC)c1OC [R406 (free base)] ?
*A* MEDIUM

*Q* Subsequent entry: CN1CCN(Cc2ccc(NC(=O)Nc3ccc(Oc4ccnc(N)n4)cc3)cc2C(F)(F)F)CC1
*A* LOW

*Q* OC1CCC(Oc2cccc3cnc(Nc4ccc5nc[nH]c5c4)nc23)CC1 (configuration not stated) ?
*A* HIGH

*Q* Next record, please: Cc1cc(Nc2cc(N3CCN(C)CC3)nc(/C=C/c3ccccc3)n2)n[nH]1
*A* HIGH

*Q* Input Cc1ncc(CCCN(C)C)cc1Nc1ncc2c(n1)-c1ccc(C(F)(F)F)cc1NC(=S)C2
*A* LOW

*Q* Another: CCCCCCCCCC(=O)CC(O)S(=O)(=O)O (configuration not stated) [Sodium Houttuyfonate]
*A* MEDIUM

*Q* Entry to check: C=CC(=O)Nc1cccc(Nc2nc(Nc3ccc(N4CCN(C(C)=O)CC4)cc3OC)ncc2C(F)(F)F)c1
*A* MEDIUM

*Q* Field entry: Cc1[nH]nc2ccc(-c3cncc(OC[C@@H](N)Cc4ccccc4)c3)cc12
*A* MEDIUM

FYI, the data here is from the supplement of paper PMC9694430.
